# measurement target: VIM-2 (Escherichia coli, UniProt Q5U7L7)
# test description: IC50 assay, nitrocefin hydrolysis, VIM-2 (MBL)
# Format: biochemical
# details: nitrocefin 50 μM, 5 min pre-incubation at 25° C.; 10 mM HEPES pH 7.5, 200 mM NaCl, 50 uM Zn2SO4, 50 ug/ml BSA
measured parameter: IC50 (µM)
Expressed in µM, but write only the number.

# example entries with known answers
O=C(Cc1ccccc1)NCc1cn(CB(O)O)nn1 [Cmp 1d] : 92
O=C(NCc1cn(CB(O)O)nn1)c1ccccc1 [Cmp 1c] : 55

Now for the molecule whose IC50 we want.
Lookup result for O=C(NCc1cn(CB(O)O)nn1)Nc1ccccc1 [Cmp 1e] ; measured IC50: 39
